Data provenance: the NIST ThermoML archive (doi:10.1021/je060353z)

Measured mass density accompanies every entry in the list below.
condition description: 313.15 K; 101 kPa; Liquid
I only need the number, in kg/m3, no unit after it.

| given smiles | measurement unit | meas value |
| --- | --- | --- |
| Clc1ccccc1 | kg/m3 | 1083.66 |
| CCCCCCCCCCO | kg/m3 | 815.983 |
| CCCCCCO | kg/m3 | 804.811 |
| CCCCCCCO | kg/m3 | 808.162 |

*Q* May I ask what mass density has been recorded for CCCCCCCCCO ?
*A* 814.098

====

Measured mass density accompanies every entry in the list below.
condition description: 303.15 K; 101 kPa; Liquid
I only need the number, in kg/m3, no unit after it.

| given smiles | meas value |
| --- | --- |
| Clc1ccccc1 | 1095.1 |
| CCCCCCCCCO | 821.044 |
| CCCCCCO | 812.118 |
| CCCCCCCCCCO | 822.853 |

*Q* May I ask what mass density has been recorded for CCCCCCCO ?
*A* 815.287
